# ASSAY: RP, Phenomenex Luna Omega Polar C18, 100 × 2.1 mm, 1.6 µm, 40 °C, 0.5 mL/min, estimated dead time 0.44 min; A: water + 0.5% formic acid; B: acetonitrile + 0.5% formic acid; gradient (min/%B) 0/5 3/50 3.1/100 5/100 5.1/5 7/5
# TEST CONTEXT: stereoisomer not certain
PARAMETER MEASURED: LC retention time (min)

INSERT INTO results (compound, endpoint_result) VALUES
  ('COc1cc(/C=C/C(=O)O)ccc1O', 2.51),
  ('COc1cc(C(=O)O)ccc1O', 2.07),
  ('O=C(O)C1OC(Oc2c(-c3ccc(O)cc3)oc3cc(O)cc(O)c3c2=O)C(O)C(O)C1O (stereo not given) [Kaempferol-3-O-glucuronide]', 2.53),
  ('O=C(O)c1cc(O)c(O)c(O)c1', 1.15),
  ('COc1cc(C=O)ccc1O', 2.44),
  ('O=c1oc2cc(O)ccc2c2ccc(O)cc12', 3.08),
  ('C[N+]1(C)CCCC1C(=O)[O-] (stereo not given) [Stachydrine]', 0.61),
  ('O=C(O)c1ccc(O)c(O)c1', 1.54),
  ('COc1cc(C=CC(=O)CC(=O)C=Cc2ccc(O)c(OC)c2)ccc1O', 3.84),
  ('Cn1cnc2c1c(=O)[nH]c(=O)n2C', 1.45);
